Target: T1, human IL-5 with his-tag (rhIL-5-his) (human, UniProt P05113 20-134)
T1 sequence: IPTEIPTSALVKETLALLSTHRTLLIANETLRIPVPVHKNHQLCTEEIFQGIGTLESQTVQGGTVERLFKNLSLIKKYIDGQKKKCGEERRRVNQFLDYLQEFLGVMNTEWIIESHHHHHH
Experiment: cell-based or functional assay
Property: IC50 of inhibition of IL-5 induced TF1 cell proliferation; scope: individual binders
Param answer (str): number followed by unit.

{"Binder": "h1706-003 (antibody, human IgG1, kappa, V domains shown) VH: EVQLVESGGGLVQPGGSLRLSCAASGFTFSHYYMAWVRQAPGKGLEWVSSINYEGNSAYYGDSVKGRFTISRDNSKNTLYLQMNSLRAEDTAVYYCATETLRESLDYWGQGTMVTVSS VL: DIQMTQSPSSVSASVGDRVTITCRASQDIGNYLSWYQQKPGKAPKLLIYSASNLEVGVPSRFSGSGSGTDFTLTISSLQPEDFATYYCLQHKQFPRTFGGGTKVEIKR", "Value": "0.31 nM"}
{"Binder": "h1706-007 (antibody, human IgG1, kappa, V domains shown) VH: EVQLVESGGGLVQPGGSLRLSCAASGFTFSHYYMAWVRQAPGKGLEWVTSINYEGNSAYYGDSVKGRFTISRDNSKNTLYLQMNSLRAEDTATYYCATETLRESLDYWGQGTMVTVSS VL: DIQMTQSPSSVSASVGDRVTITCRASQDIGNYLSWYQQKPGKSPKLLIYSASNLEVGVPSRFSGSGSGTDFTLTISSLQPEDFATYYCLQHKQFPRTFGGGTKVEIKR", "Value": "0.28 nM"}
{"Binder": "Hu39D10 (antibody, human IgG4 S228P, kappa, V domains shown, Anti-IL-5 antibody of WO2012083370A1, used as positive control; also called positive control; positive antibody) VH: EVQLVESGGGLVQPGGSLRLSCAVSGLSLTSNSVNWIRQAPGKGLEWVGLIWSNGDTDYNSAIKSRFTISRDTSKSTVYLQMNSLRAEDTAVYYCAREYYGYFDYWGQGTLVTVSS VL: DIQMTQSPSSLSASVGDRVTITCLASEGISSYLAWYQQKPGKAPKLLIYGANSLQTGVPSRFSGSGSATDYTLTISSLQPEDFATYYCQQSYKFPNTFGQGTKVEVKR", "Value": "0.3 nM"}
{"Binder": "h1706-009 (antibody, human IgG1, kappa, V domains shown) VH: EVQLVESGGGLVQPGGSLRLSCAASGFTFSHYYMAWVRQAPGKGLEWVSSINYEGNSAYYGDSVKGRFTISRDNSKNTLYLQMNSLRAEDTAVYYCATETLRESLDYWGQGTMVTVSS VL: DIQMTQSPSSVSASVGDRVTITCRASQDIGNYLSWYQQKPGKSPKLMIYSASNLEVGVPSRFSGSGSGTDYTLTISSLQPEDFATYFCLQHKQFPRTFGGGTKVEIKR", "Value": "0.25 nM"}

Attention now turns to another entry.
Q) Consider the binder shown here: h1705-008 (antibody, human IgG1, kappa, V domains shown, IgG1 with M252Y/S254T/T256E, kappa) VH: EVQLVESGGGLVQPGGSLRLSCAASGFTFSHYYMAWVRQAPGKGLEWVTSISYEGDITYYGDSVKGRFTISRDNSKNTLYLQMNSLRAEDTATYYCASQTLRESFDYWGQGTLVTVSS VL: DIQMTQSPSSVSASVGDRVTITCRASQDIANYLSWYQQKPGKSPKLLIYGTSNLEVGVPSRFSGSRSGTDFTLTISSLQPEDFATYYCLQDKEFPRTFGGGTKVEIKR What is its recorded IC50 of inhibition of IL-5 induced TF1 cell proliferation?
A) 0.2 nM
